Answer each item with its documented EC50.
- assayedTarget: UniProt P08485
- Sequence (P08485 whole entry): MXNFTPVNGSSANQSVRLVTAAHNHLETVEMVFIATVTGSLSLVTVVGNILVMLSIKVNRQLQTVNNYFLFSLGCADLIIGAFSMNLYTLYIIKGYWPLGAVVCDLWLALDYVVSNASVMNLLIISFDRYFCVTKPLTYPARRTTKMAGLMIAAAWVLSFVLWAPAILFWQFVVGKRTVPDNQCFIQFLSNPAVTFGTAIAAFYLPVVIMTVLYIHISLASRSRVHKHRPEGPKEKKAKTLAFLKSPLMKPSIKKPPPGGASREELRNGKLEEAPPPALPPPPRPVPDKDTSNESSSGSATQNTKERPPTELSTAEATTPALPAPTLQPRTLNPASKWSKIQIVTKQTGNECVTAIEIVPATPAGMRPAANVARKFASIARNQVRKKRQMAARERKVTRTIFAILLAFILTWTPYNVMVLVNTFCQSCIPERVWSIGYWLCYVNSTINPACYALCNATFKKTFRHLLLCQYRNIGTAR
- protocolSummary: Rat M4 PAM pERK assay
- conditionNotes: PAM mode

INPUT: Entry under review: Cc1c2c(n(C)c(=O)c1Cl)CN(C(=O)c1ccc(C(C)(C)C)s1)C2 [Compound I-7] . Reported EC50?
OUTPUT: > 2 µM

INPUT: Query: EC50; subject: COc1c2c(n(C)c(=O)c1C)CN(C(=O)c1cnn(CC(F)(F)F)c1)C2 [Compound I-85]
OUTPUT: > 2 µM

INPUT: Sample Cc1c2c(n(C)c(=O)c1Cl)CN(C(=O)c1cnn(C(F)F)c1)[C@@H]2C [Compound I-77] — what was its EC50?
OUTPUT: 0.1 to 0.5 µM

INPUT: Query (compound): COCc1ncc(C(=O)N2Cc3c(C)c(Cl)c(=O)n(C)c3C2)s1 [Compound I-38] ; field requested: EC50
OUTPUT: > 2 µM

INPUT: What does the record list as EC50 for Cc1c2c(n(C)c(=O)c1Cl)CN(C(=O)c1cnn(CC(C)C)c1)C2 [Compound I-5] ?
OUTPUT: > 2 µM

INPUT: For the compound Cc1c2c(n(C)c(=O)c1Cl)CN(C(=O)c1cnn3c1CCC3)C2 [Compound I-37] , what EC50 is on record?
OUTPUT: > 2 µM

INPUT: Item under review: Cc1c2c(n(C)c(=O)c1Cl)CN(C(=O)c1cnn(Cc3ccc(C(F)(F)F)nc3)c1)C2 [Compound I-57] . Reported EC50?
OUTPUT: > 2 µM

INPUT: Sample Cc1c2c(n(C)c(=O)c1Cl)CN(C(=O)c1cnn(CC3CC3)c1)C2 [Compound I-27] — what was its EC50?
OUTPUT: > 2 µM

INPUT: Which EC50 is reported for this compound? Cc1c2c(n(CC(F)(F)F)c(=O)c1Cl)CN(C(=O)c1cnc(CC3CC3)s1)C2 [Compound I-71]
OUTPUT: > 2 µM

INPUT: # get_value(readout='EC50', item= Cc1c2c(n(C)c(=O)c1Cl)CN(C(=O)c1cnc(CC3CC3(F)F)s1)C2 (centres unmarked) [Compound I-65] )
OUTPUT: 0.5 to 2 µM

INPUT: What value of EC50 has been recorded for this entry: Cc1c2c(n(C)c(=O)c1F)CN(C(=O)c1cnn(C(F)(F)F)c1)C2 [Compound I-113]
OUTPUT: > 2 µM

INPUT: # query: EC50 of entry Cc1c2c(n(CC(F)(F)F)c(=O)c1Cl)CN(C(=O)c1ccc3nc(C4CC4)sc3c1)C2 [Compound I-72]
OUTPUT: 0.1 to 0.5 µM

INPUT: Field request: EC50 | item: Cc1c2c(n(C)c(=O)c1Cl)CN(C(=O)c1cn(C(F)(F)F)cn1)C2 [Compound I-15]
OUTPUT: > 2 µM

INPUT: Look up EC50 for this compound: Cc1c2c(n(CC3CC3)c(=O)c1Cl)CN(C(=O)c1ccc3nc(C4CCC4)sc3c1)C2 [Compound I-70]
OUTPUT: 0.1 to 0.5 µM

INPUT: Which EC50 is reported for this compound? Cc1c2c(n(CC3CC3)c(=O)c1Cl)CN(C(=O)c1cnc(CC3CC3)s1)C2 [Compound I-69]
OUTPUT: > 2 µM

INPUT: Recorded EC50 of Cc1c2c(n(C)c(=O)c1Cl)CN(C(=O)c1cc(C3CC3)on1)C2 [Compound I-6] , please.
OUTPUT: > 2 µM

INPUT: What value of EC50 has been reported for the following compound? Cc1c2c(n(C)c(=O)c1F)CN(C(=O)c1cnn(C(F)(F)F)c1)[C@@H]2C [Compound I-114]
OUTPUT: 0.1 to 0.5 µM

INPUT: State the recorded EC50 for this entry: Cc1c2c(n(C)c(=O)c1Cl)CN(C(=O)c1cn3c(n1)CCC3)C2 [Compound I-33]
OUTPUT: > 2 µM

INPUT: What does the record list as EC50 for Cc1c2c(n(C)c(=O)c1Cl)CN(C(=O)c1ccc3nc(C(F)(F)F)sc3c1)C2 [Compound I-49] ?
OUTPUT: 0.5 to 2 µM

INPUT: Which EC50 is reported for this compound? Cc1c2c(n(C)c(=O)c1Cl)CN(C(=O)c1cccc(C(F)(F)F)c1)C2 [Compound I-40]
OUTPUT: > 2 µM

* * *

Exercise: state measured EC50 for each of the compounds provided.
- assayedTarget: hM4 receptors (Homo sapiens, UniProt P08173)
- Sequence (P08173 1-479): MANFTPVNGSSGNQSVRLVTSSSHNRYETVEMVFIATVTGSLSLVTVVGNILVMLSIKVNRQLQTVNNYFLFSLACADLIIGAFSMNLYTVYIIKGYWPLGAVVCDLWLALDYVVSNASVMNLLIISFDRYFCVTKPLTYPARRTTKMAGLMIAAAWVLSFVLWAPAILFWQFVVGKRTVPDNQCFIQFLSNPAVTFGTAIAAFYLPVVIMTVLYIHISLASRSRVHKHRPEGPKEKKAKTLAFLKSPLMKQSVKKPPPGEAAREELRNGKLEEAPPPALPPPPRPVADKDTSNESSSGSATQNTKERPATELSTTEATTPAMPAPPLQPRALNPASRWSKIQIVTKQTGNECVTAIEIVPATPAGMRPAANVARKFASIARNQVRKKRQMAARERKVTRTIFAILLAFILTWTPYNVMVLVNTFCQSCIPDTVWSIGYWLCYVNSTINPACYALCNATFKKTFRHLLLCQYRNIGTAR
- protocolSummary: Human M4 PAM pERK assay
- conditionNotes: PAM mode

INPUT: Which EC50 value belongs to Cc1cc(=O)n(C)c2c1[C@H](C)N(C(=O)c1ccc3nc(C4CC4)sc3c1)C2 [Compound I-102] ?
OUTPUT: > 2 µM

INPUT: Requested read-out: EC50. Entry: Cc1c2c(n(C)c(=O)c1C)CN(C(=O)c1cnn(C(F)(F)F)c1)[C@@H]2C [Compound I-78]
OUTPUT: < 0.1 µM

INPUT: Reported EC50 for Cc1c2c(n(C)c(=O)c1Cl)C(C)N(C(=O)c1cnn(C(F)(F)F)c1)C2 (stereo not shown) [Compound I-109] : what is it?
OUTPUT: 0.5 to 2 µM

INPUT: May I ask what EC50 has been recorded for Cc1c2c(n(C)c(=O)c1Cl)CN(C(=O)c1ccc3nc(C4CC4)sc3c1)C2 [Compound I-52] ?
OUTPUT: 0.1 to 0.5 µM

INPUT: // query EC50 value for entry Cc1c2c(n(C)c(=O)c1Cl)CN(C(=O)c1cnc(CC3CC3)s1)C2 [Compound I-28]
OUTPUT: < 0.1 µM

INPUT: Entry under review: Cc1c2c(n(C)c(=O)c1Cl)CN(C(=O)c1cnn(Cc3cccnc3)c1)C2 [Compound I-59] . Reported EC50?
OUTPUT: 0.5 to 2 µM

INPUT: What measured EC50 goes with Cc1cc(=O)n(C)c2c1CN(C(=O)c1cnn(C)c1)C2C (single isomer, unassigned) [Compound I-107] ?
OUTPUT: > 2 µM

INPUT: Fill in: EC50 of Cc1cc(=O)n(C)c2c1C(C)N(C(=O)c1cnc(C(F)(F)F)s1)C2 (single isomer, unassigned) [Compound I-94] is ___
OUTPUT: > 2 µM

INPUT: Entry Cc1c2c(n(C)c(=O)c1Cl)CN(C(=O)c1cccc(C(F)(F)F)c1)C2 [Compound I-40] : reported EC50 = ?
OUTPUT: 0.5 to 2 µM

INPUT: So what's the measured EC50 for this one? Cc1ncc(C(=O)N2Cc3c(C)c(Cl)c(=O)n(C)c3C2)s1 [Compound I-9]
OUTPUT: < 0.1 µM

INPUT: Returns the measured EC50 for the input compound. Input: Cc1c2c(n(C)c(=O)c1Cl)CN(C(=O)c1cn3c(n1)CCCC3)C2 [Compound I-24]
OUTPUT: 0.5 to 2 µM

INPUT: Would you kindly share the measured EC50 for Cc1c2c(n(C)c(=O)c1F)CN(C(=O)c1cnn(C(F)(F)F)c1)C2 [Compound I-113] ?
OUTPUT: < 0.1 µM

INPUT: If you can, please state the reported EC50 value of Cc1c2c(n(CC(F)(F)F)c(=O)c1Cl)CN(C(=O)c1ccc3nc(C4CC4)sc3c1)C2 [Compound I-72] .
OUTPUT: 0.1 to 0.5 µM

INPUT: Data request, read-out EC50, for Cc1c2c(n(C)c(=O)c1Cl)C(C)N(C(=O)c1cnn(C(F)(F)F)c1)C2 (single isomer, unassigned) [Compound I-108]
OUTPUT: 0.5 to 2 µM

INPUT: Any idea what EC50 was measured for Cc1c2c(n(C)c(=O)c1Cl)CN(C(=O)c1cnc(C3CCC3)s1)C2 [Compound I-35] ?
OUTPUT: 0.1 to 0.5 µM

INPUT: Item Cc1c2c(n(C)c(=O)c1Cl)CN(C(=O)c1cn(C)cn1)C2 [Compound I-4] has what recorded EC50?
OUTPUT: 0.5 to 2 µM

INPUT: Any idea what EC50 was measured for Cc1c2c(n(C)c(=O)c1Cl)CN(C(=O)c1ccn(C(F)(F)F)n1)C2 [Compound I-16] ?
OUTPUT: 0.1 to 0.5 µM

INPUT: Record request: EC50 value, item Cc1cc(=O)n(C)c2c1C(C)N(C(=O)c1cnc(C3CC3)s1)C2 (single isomer, unassigned) [Compound I-97]
OUTPUT: 0.1 to 0.5 µM

INPUT: Consider the compound shown here: Cc1c2c(n(CC(F)(F)F)c(=O)c1Cl)CN(C(=O)c1cnc(CC3CC3)s1)C2 [Compound I-71] What is its recorded EC50?
OUTPUT: 0.5 to 2 µM

INPUT: Request the reported EC50 associated with Cc1c2c(n(C)c(=O)c1Cl)CN(C(=O)c1cnn(C)c1)C2 [Compound I-2]
OUTPUT: < 0.1 µM

INPUT: Recorded EC50 of Cc1c2c(n(C)c(=O)c1Cl)CN(C(=O)c1ccc(C(F)(F)F)cn1)C2 [Compound I-45] , please.
OUTPUT: 0.1 to 0.5 µM

INPUT: Could you tell me which EC50 is on file for Cc1cc(=O)n(C)c2c1CN(C(=O)c1cnn(C)c1)C2C (stereo not shown) [Compound I-105] ?
OUTPUT: > 2 µM

INPUT: // query EC50 value for entry Cc1c2c(n(C)c(=O)c1Cl)CN(C(=O)c1cnn(CC3CCCC3)c1)C2 [Compound I-55]
OUTPUT: 0.1 to 0.5 µM

INPUT: For the compound shown here, Cc1c2c(n(C)c(=O)c1Cl)CN(C(=O)c1cn(C)c(C)n1)C2 [Compound I-11] , give the reported EC50.
OUTPUT: > 2 µM

INPUT: # lookup: EC50 of Cc1c2c(n(C)c(=O)c1Cl)CN(C(=O)c1ccn(C)n1)C2 [Compound I-3]
OUTPUT: 0.5 to 2 µM

INPUT: Sample Cc1c2c(n(C)c(=O)c1Cl)CN(C(=O)c1cn3c(n1)COCC3)C2 [Compound I-25] — what was its EC50?
OUTPUT: 0.5 to 2 µM

INPUT: # input compound: CCOc1c2c(n(C)c(=O)c1C)CN(C(=O)c1cnn(C(F)(F)F)c1)C2 [Compound I-88] ; wanted: its EC50
OUTPUT: < 0.1 µM

INPUT: # lookup: EC50 of Cc1c2c(n(C)c(=O)c1C)CN(C(=O)c1ccc3nc(C4CC4)sc3c1)C2 [Compound I-111]
OUTPUT: > 2 µM

INPUT: I am curious: what EC50 value has been reported for CSc1c2c(n(C)c(=O)c1C)CN(C(=O)c1cnn(C(F)(F)F)c1)C2 [Compound I-90] ?
OUTPUT: 0.1 to 0.5 µM

INPUT: Entry under review: Cc1c2c(n(C)c(=O)c1Cl)CN(C(=O)c1cnn(CC(F)(F)F)c1)C2 [Compound I-61] . Reported EC50?
OUTPUT: 0.5 to 2 µM

INPUT: Record request: EC50 value, item Cc1c2c(n(C)c(=O)c1Cl)CN(C(=O)c1cnn(CC3CC3)c1)C2 [Compound I-27]
OUTPUT: 0.5 to 2 µM
